Recorded IC50 for the following compounds
- target.under.test: recombinant eIF4E (Homo sapiens (Human))
- Sequence (P06730 whole entry): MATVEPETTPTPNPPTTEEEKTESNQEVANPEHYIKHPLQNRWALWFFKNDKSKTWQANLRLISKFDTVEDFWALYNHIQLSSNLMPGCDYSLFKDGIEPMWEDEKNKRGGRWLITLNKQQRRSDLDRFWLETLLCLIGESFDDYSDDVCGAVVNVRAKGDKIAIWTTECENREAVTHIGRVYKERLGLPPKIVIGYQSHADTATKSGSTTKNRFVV
- experiment.description: Fluorescence polarization competition assay for eIF4E binding potency
- test.conditions: fluorescence polarization competition, 75 nM recombinant eIF4E, 20 nM EDA-m7GDP-ATTO-550; IC50 class; read-out: elF4E FP
measure: IC50

INSERT INTO assay_data (compound, endpoint_value) VALUES
  ('Cc1nc2cnc(C3CC3)c(C#N)c2c(=O)n1CCOc1ccc(Cl)cc1-c1cc(CF)nc2c(C(=O)O)csc12 [compound 917]', '< 50 nM'),
  ('Cc1nc2cc(C(F)(F)F)cc(C#N)c2c(=O)n1CCOc1ccc(Cl)cc1-c1nsc2c(C(=O)O)csc12 [compound 315]', '50 to 1000 nM'),
  ('Cc1nc2cc(C(F)(F)F)c(N3CCN(C)CC3)c(C#N)c2c(=O)n1CCOc1ccc(Cl)cc1-c1cccc(C(=O)O)c1 [compound 374]', '< 50 nM');
